- SYSTEM: p38α MAPK (Homo sapiens, UniProt Q16539)
- Sequence (Q16539 whole entry): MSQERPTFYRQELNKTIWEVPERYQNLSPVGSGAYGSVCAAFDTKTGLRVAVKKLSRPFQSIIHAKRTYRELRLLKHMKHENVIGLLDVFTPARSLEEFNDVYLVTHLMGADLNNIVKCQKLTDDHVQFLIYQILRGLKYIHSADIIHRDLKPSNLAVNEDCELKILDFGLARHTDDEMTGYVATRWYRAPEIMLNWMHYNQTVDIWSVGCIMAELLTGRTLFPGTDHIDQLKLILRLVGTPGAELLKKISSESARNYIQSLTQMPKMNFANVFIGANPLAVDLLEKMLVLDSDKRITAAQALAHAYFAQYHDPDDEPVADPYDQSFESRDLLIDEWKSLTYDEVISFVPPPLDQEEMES
- TEST_DESCRIPTION: Cell-based eGFP-MK2 translocation assay, DLD1_eGFP-MK2 cells
- Set-up: endogenous in cells
- TEST_CONTEXT: DLD1_eGFP-MK2 cells, 1 h compound, n = 3; read-out: IC50 cell-based MK2 translocation DLD1
RECORDED_METRIC: IC50 (nM)

> print(dat)
                                   compound  recorded.metric  reported.result
1  O=C(NCCN1CCOCC1)c1ccc2c(c1)C(=O)c1ccc(Nc3ccc(F)cc3F)cc1CC2 [Compound 1]             IC50             25.6
